Values compiled from patent US20200297818A1.

What EC50 GLP-2 (nM); cAMP response was measured for each of the following?
- Tested On: T1, human GLP-2 receptor (hGLP2-R) (human, UniProt O95838 1-553)
- T1 sequence (looked up): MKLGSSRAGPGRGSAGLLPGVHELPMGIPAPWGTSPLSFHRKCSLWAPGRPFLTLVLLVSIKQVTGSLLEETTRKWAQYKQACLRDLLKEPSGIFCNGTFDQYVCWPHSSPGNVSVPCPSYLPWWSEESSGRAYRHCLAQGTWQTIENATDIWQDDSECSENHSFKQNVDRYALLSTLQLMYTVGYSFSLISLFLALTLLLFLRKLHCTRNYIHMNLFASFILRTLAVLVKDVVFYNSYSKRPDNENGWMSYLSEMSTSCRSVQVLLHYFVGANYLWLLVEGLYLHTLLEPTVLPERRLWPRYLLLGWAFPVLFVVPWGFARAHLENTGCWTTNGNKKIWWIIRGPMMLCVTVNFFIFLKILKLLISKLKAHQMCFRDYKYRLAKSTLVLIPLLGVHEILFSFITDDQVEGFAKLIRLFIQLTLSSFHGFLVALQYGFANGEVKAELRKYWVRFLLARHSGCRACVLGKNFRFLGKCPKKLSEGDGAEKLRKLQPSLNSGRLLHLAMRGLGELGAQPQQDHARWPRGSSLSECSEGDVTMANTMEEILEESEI
- Assay Text: cell-based or functional assay
*1 amine or outer side, *2 acyl side, *3 side chain or, on linkers, in order; H or OH if unused. Where no end group is shown, it is not given here. Side-chain parts run from the residue outwards. [ ]: non-standard residue; d: D form. The star is where a group is joined. C20 diacid = O=C(O)CCCCCCCCCCCCCCCCCCC(=O)*; C18 diacid = O=C(O)CCCCCCCCCCCCCCCCC(=O)*; γGlu = O=C(O)[C@H](CCC(=O)[*:2])N[*:1]; AEEA = NCCOCCOCC(=O)O; Aib = CC(C)(N)C(=O)O
One number for each entry, in nM.

H-H[Aib]EGTFSSELATILDK([AEEA-Lys-Glu-Lys-γGlu-C18 diacid])QAARDFIAWLIEHKITD-OH [Compound 49]    0.044
H-H[Aib]EGTFTSELATILDK([AEEA-Lys-Glu-Lys-γGlu-C20 diacid])QAARDFIAWLIEHKITD-OH [Compound 56]    0.076

Quote EC50 GLP-2 (nM); cAMP response reported for H[Aib]EGTFTSELATILDK([γGlu-C18 diacid])KAARDFIAWLIEHKITD-OH [Compound 6] please.
0.12
